# measuredOn: T1, CD40hfc (R&Dsystems, USA) (UniProt P25942 21-193)
# T1 construct: Bought reagent; also called immobilized CD40 receptor; target; not shown: Fc part ('hfc') of the bought fusion
# assayRemarks: SPR (Biacore 3000), CD40hfc amine-coupled on chip, antibody as analyte, 37 C, pH 7.3
pKd: −log10 of the molar value.

{"columns": ["binder", "pKd"],
 "data": [
  ["Antibody clone B9 (antibody, human IgG1, lambda, V domains shown) VH: EVQLLESGGGLVQPGGSLRLSCAASGFTFSTYGMHWVRQAPGKGLEWLSYISGGSSYIFYADSVRGRFTISRDNSENALYLQMNSLRAEDTAVYYCARILRGGSGMDLWGQGTLVTVSS VL: QSVLTQPPSASGTPGQRVTISCTGSSSNIGAGYNVYWYQQLPGTAPKLLIYGNINRPSGVPDRFSGSKSGTSASLAISGLRSEDEADYYCAAWDGGLLGLVFGGGTKLTVLG", 10.85],
  ["Antibody clone A4 (antibody, human IgG1, lambda, V domains shown, Tested as purified antibody; full chains are assembled here from VH/VL plus these; also called A4 ANTI-CD40 ANTIBODY) VH: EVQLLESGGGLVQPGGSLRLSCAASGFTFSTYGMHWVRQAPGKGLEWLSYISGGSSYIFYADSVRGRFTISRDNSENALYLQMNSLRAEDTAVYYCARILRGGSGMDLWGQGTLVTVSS VL: QSVLTQPPSASGTPGQRVTISCTGSTSNIGAGYKVYWYQQLPGTAPKLLIYGNINRPSGVPDRFSGSKSGTSASLAISGLRSEDEADYYCAAWDDSLSGLVFGGGTKLTVLG", 11.00]
]}

Data origin: patent US20140348836A1
